System: kinase activity of SEQID-00338 (AMP + ATP→2ADP)
Experiment: Kinase activity of SEQID-00338 and mutants, ADP-Glo Max Assay
Type: biochemical
Conditions: 7 μg/mL, 30 minute reaction at 30° C.; N=2
assay-metric: AVG proportion activity, percentage AMP + ATP→2ADP converted relative to wild-type (%)
Give bare numbers, in %.

R42C: single amino acid mutant of SEQID-00338 at substrate binding position 42 (protein, listed as Saccharomyces cerevisiae, strain ATCC 204508 / S288c) MSSSESIRMVLIGPPGAGKGTQAPNLQERFHAAHLATGDMLCSQIAKGTQLGLEAKKIMDQGGLVSDDIMVNMIKDELTNNPACKNGFILDGFPRTIPQAEKLDQMLKEQGTPLEKAIELKVDDELLVARITGRLIHPASGRSYHKIFNPPKEDMKDDVTGEALVQRSDDNADALKKRLAAYHAQTEPIVDFYKKTGIWAGVDASQPPATVWADILNKLGKD: 1.8
R42T: single amino acid mutant of SEQID-00338 at substrate binding position 42 (protein, listed as Saccharomyces cerevisiae, strain ATCC 204508 / S288c) MSSSESIRMVLIGPPGAGKGTQAPNLQERFHAAHLATGDMLTSQIAKGTQLGLEAKKIMDQGGLVSDDIMVNMIKDELTNNPACKNGFILDGFPRTIPQAEKLDQMLKEQGTPLEKAIELKVDDELLVARITGRLIHPASGRSYHKIFNPPKEDMKDDVTGEALVQRSDDNADALKKRLAAYHAQTEPIVDFYKKTGIWAGVDASQPPATVWADILNKLGKD: 1.9
R42L: single amino acid mutant of SEQID-00338 at substrate binding position 42 (protein, listed as Saccharomyces cerevisiae, strain ATCC 204508 / S288c) MSSSESIRMVLIGPPGAGKGTQAPNLQERFHAAHLATGDMLLSQIAKGTQLGLEAKKIMDQGGLVSDDIMVNMIKDELTNNPACKNGFILDGFPRTIPQAEKLDQMLKEQGTPLEKAIELKVDDELLVARITGRLIHPASGRSYHKIFNPPKEDMKDDVTGEALVQRSDDNADALKKRLAAYHAQTEPIVDFYKKTGIWAGVDASQPPATVWADILNKLGKD: 1.7

Short answer for R42K: single amino acid mutant of SEQID-00338 at substrate binding position 42 (protein, listed as Saccharomyces cerevisiae, strain ATCC 204508 / S288c) MSSSESIRMVLIGPPGAGKGTQAPNLQERFHAAHLATGDMLKSQIAKGTQLGLEAKKIMDQGGLVSDDIMVNMIKDELTNNPACKNGFILDGFPRTIPQAEKLDQMLKEQGTPLEKAIELKVDDELLVARITGRLIHPASGRSYHKIFNPPKEDMKDDVTGEALVQRSDDNADALKKRLAAYHAQTEPIVDFYKKTGIWAGVDASQPPATVWADILNKLGKD : AVG proportion activity, percentage AMP + ATP→2ADP converted relative to wild-type was 2.2
